I'd appreciate it if you could supply MIC values for the items below.
# Test system: Micrococcus luteus ATCC 4698
One number for each entry, in µg/mL.

// known answers, use as guide
1. CC[C@H]1OC(=O)[C@H](C)[C@@H](O[C@H]2C[C@@](C)(OC)[C@@H](O)[C@H](C)O2)[C@H](C)[C@@H](O[C@@H]2O[C@H](C)C[C@H](N(C)C)[C@H]2O)[C@@]2(C)C[C@@H](C)C(=O)[C@H](C)[C@H]3N(CC(O)CCCCO2)C(=O)O[C@]13C (stereo partly shown): 0.39
2. CC[C@H]1OC(=O)[C@H](C)C(=O)[C@H](C)[C@@H](O[C@@H]2O[C@H](C)C[C@H](N(C)C)[C@H]2O)[C@@]2(C)C[C@@H](C)C(=O)[C@H](C)[C@H]3N(CC=CCO2)C(=O)O[C@]13C: 0.39
3. CC[C@H]1OC(=O)[C@H](C)[C@@H](O[C@H]2C[C@@](C)(OC)[C@@H](O)[C@H](C)O2)[C@H](C)[C@@H](O[C@@H]2O[C@H](C)C[C@H](N(C)C)[C@H]2O)[C@@]2(C)C[C@@H](C)C(=O)[C@H](C)[C@H]3N(CC=CCO2)C(=O)O[C@]13C: 0.39

Turning now to a further record.
Look at this compound and give its reported MIC. `CC[C@H]1OC(=O)[C@H](C)C(=O)[C@H](C)[C@@H](O[C@@H]2O[C@H](C)C[C@H](N(C)C)[C@H]2O)[C@@]2(C)C[C@@H](C)C(=O)[C@H](C)[C@H]3N(CCC=CCO2)C(=O)O[C@]13C`
0.78

###

# Test system: Staphylococcus aureus ATCC 6538P
property-measured: MIC (µg/mL)
Numbers only, in µg/mL.

1. CC[C@H]1OC(=O)[C@H](C)[C@@H](O[C@H]2C[C@@](C)(OC)[C@@H](O)[C@H](C)O2)[C@H](C)[C@@H](O[C@@H]2O[C@H](C)C[C@H](N(C)C)[C@H]2O)[C@@]2(C)C[C@@H](C)C(=O)[C@H](C)[C@H]3N(CCNC(=O)c4ccccc4CC=CCO2)C(=O)O[C@]13C: 0.78

Query for Staphylococcus aureus ATCC 6538P: what MIC does the record show for `CC[C@H]1OC(=O)[C@H](C)C(=O)[C@H](C)[C@@H](O[C@@H]2O[C@H](C)C[C@H](N(C)C)[C@H]2O)[C@@]2(C)C[C@@H](C)C(=O)[C@H](C)[C@H]3N(CC=CCO2)C(=O)O[C@]13C` ?
0.39

###

Quick record of MIC values for Staphylococcus aureus NCTC10649M.
Numbers only, in µg/mL.

1. CC[C@H]1OC(=O)[C@H](C)[C@@H](O[C@H]2C[C@@](C)(OC)[C@@H](O)[C@H](C)O2)[C@H](C)[C@@H](O[C@@H]2O[C@H](C)C[C@H](N(C)C)[C@H]2O)[C@@]2(C)C[C@@H](C)C(=O)[C@H](C)[C@H]3N(CC=CCO2)C(=O)O[C@]13C: 0.39
2. CC[C@H]1OC(=O)[C@H](C)[C@@H](O[C@H]2C[C@@](C)(OC)[C@@H](O)[C@H](C)O2)[C@H](C)[C@@H](O[C@@H]2O[C@H](C)C[C@H](N(C)C)[C@H]2O)[C@@]2(C)C[C@@H](C)C(=O)[C@H](C)[C@H]3N(CCNC(=O)Cc4ccccc4C=CCO2)C(=O)O[C@]13C: 1.56
3. CC[C@H]1OC(=O)[C@H](C)[C@@H](O[C@H]2C[C@@](C)(OC)[C@@H](O)[C@H](C)O2)[C@H](C)[C@@H](O[C@@H]2O[C@H](C)C[C@H](N(C)C)[C@H]2O)[C@@]2(C)C[C@@H](C)C(=O)[C@H](C)[C@H]3N(CCNC(=O)c4ccccc4CC=CCO2)C(=O)O[C@]13C: 1.56

Turning now to a further record.
Query for Staphylococcus aureus NCTC10649M: what MIC does the record show for CC[C@H]1OC(=O)[C@H](C)[C@@H](O[C@H]2C[C@@](C)(OC)[C@@H](O)[C@H](C)O2)[C@H](C)[C@@H](O[C@@H]2O[C@H](C)C[C@H](N(C)C)[C@H]2O)[C@@]2(C)C[C@@H](C)C(=O)[C@H](C)[C@H]3N(CC(O)CCCCO2)C(=O)O[C@]13C (stereo partly shown) ?
1.56

###

# System: Nocardia Asteroides ATCC9970
Labelling field: enter Yes if recorded MIC is less than 0.2 µg/mL. Enter No if it equals or exceeds that cut-off.

1) CC[C@H]1OC(=O)[C@H](C)[C@@H](O[C@H]2C[C@@](C)(OC)[C@@H](O)[C@H](C)O2)[C@H](C)[C@@H](O[C@@H]2O[C@H](C)C[C@H](N(C)C)[C@H]2O)[C@@]2(C)C[C@@H](C)C(=O)[C@H](C)[C@H]3N(CCC=CCO2)C(=O)O[C@]13C [Example 17]: Yes

Please determine if CC[C@H]1OC(=O)[C@H](C)[C@@H](O[C@H]2C[C@@](C)(OC)[C@@H](O)[C@H](C)O2)[C@H](C)[C@@H](O[C@@H]2O[C@H](C)C[C@H](N(C)C)[C@H]2O)[C@@]2(C)C[C@@H](C)C(=O)[C@H](C)[C@H]3N(CCNC(=O)Cc4ccccc4C=CCO2)C(=O)O[C@]13C [Example 6] is below 0.2 µg/mL in terms of MIC.
No

Same thing, different compound: CC[C@H]1OC(=O)[C@H](C)[C@@H](O[C@H]2C[C@@](C)(OC)[C@@H](O)[C@H](C)O2)[C@H](C)[C@@H](O[C@@H]2O[C@H](C)C[C@H](N(C)C)[C@H]2O)[C@](C)(O)C[C@@H](C)C(=O)[C@H](C)[C@@H](O)[C@]1(C)O [Ery. A, Erythromycin A, reference compound]
Yes

Same thing, different compound: CC[C@H]1OC(=O)[C@H](C)[C@@H](O[C@H]2C[C@@](C)(OC)[C@@H](O)[C@H](C)O2)[C@H](C)[C@@H](O[C@@H]2O[C@H](C)C[C@H](N(C)C)[C@H]2O)[C@@]2(C)C[C@@H](C)C(=O)[C@H](C)[C@H]3N(CC(O)CCCCO2)C(=O)O[C@]13C (stereo partly shown) [Example 22]
Yes

Same thing, different compound: CC[C@H]1OC(=O)[C@H](C)[C@@H](O[C@H]2C[C@@](C)(OC)[C@@H](OC(C)=O)[C@H](C)O2)[C@H](C)[C@@H](O[C@@H]2O[C@H](C)C[C@H](N(C)C)[C@H]2O)[C@@]2(C)C[C@@H](C)C(=O)[C@H](C)[C@H]3N(CCNCc4cccc(c4)C=CCO2)C(=O)O[C@]13C [Example 10]
No

Same thing, different compound: CC[C@H]1OC(=O)[C@H](C)[C@@H](O[C@H]2C[C@@](C)(OC)[C@@H](O)[C@H](C)O2)[C@H](C)[C@@H](O[C@@H]2O[C@H](C)C[C@H](N(C)C)[C@H]2O)[C@@]2(C)C[C@@H](C)C(=O)[C@H](C)[C@H]3N(CC(O)CC=CCO2)C(=O)O[C@]13C (stereo partly shown) [Example 19]
Yes

###

# Test system: Streptococcus pyogenes EES61
property-measured: MIC (µg/mL)
Give bare numbers, in µg/mL.

Give one value of MIC per listed molecule.
1. CC[C@H]1OC(=O)[C@H](C)[C@@H](O[C@H]2C[C@@](C)(OC)[C@@H](O)[C@H](C)O2)[C@H](C)[C@@H](O[C@@H]2O[C@H](C)C[C@H](N(C)C)[C@H]2O)[C@@]2(C)C[C@@H](C)C(=O)[C@H](C)[C@H]3N(CCNC(=O)c4ccccc4C=CCO2)C(=O)O[C@]13C
2. CC[C@H]1OC(=O)[C@H](C)C(=O)[C@H](C)[C@@H](O[C@@H]2O[C@H](C)C[C@H](N(C)C)[C@H]2O)[C@@]2(C)C[C@@H](C)C(=O)[C@H](C)[C@H]3N(CCNC(=O)c4ccccc4C=CCO2)C(=O)O[C@]13C
3. CC[C@H]1OC(=O)[C@H](C)[C@@H](O[C@H]2C[C@@](C)(OC)[C@@H](O)[C@H](C)O2)[C@H](C)[C@@H](O[C@@H]2O[C@H](C)C[C@H](N(C)C)[C@H]2O)[C@@]2(C)C[C@@H](C)C(=O)[C@H](C)[C@H]3N(CCNC(=O)c4ccccc4CC=CCO2)C(=O)O[C@]13C
4. CC[C@H]1OC(=O)[C@H](C)[C@@H](O[C@H]2C[C@@](C)(OC)[C@@H](O)[C@H](C)O2)[C@H](C)[C@@H](O[C@@H]2O[C@H](C)C[C@H](N(C)C)[C@H]2O)[C@@]2(C)C[C@@H](C)C(=O)[C@H](C)[C@H]3N(CC(O)CC=CCO2)C(=O)O[C@]13C (stereo partly shown)
5. CC[C@H]1OC(=O)[C@H](C)C(=O)[C@H](C)[C@@H](O[C@@H]2O[C@H](C)C[C@H](N(C)C)[C@H]2O)[C@@]2(C)C[C@@H](C)C(=O)[C@H](C)[C@H]3N(CC=CCO2)C(=O)O[C@]13C
6. CC[C@H]1OC(=O)[C@H](C)[C@@H](O[C@H]2C[C@@](C)(OC)[C@@H](O)[C@H](C)O2)[C@H](C)[C@@H](O[C@@H]2O[C@H](C)C[C@H](N(C)C)[C@H]2O)[C@](C)(O)C[C@@H](C)C(=O)[C@H](C)[C@@H](O)[C@]1(C)O [Ery. A, Erythromycin A, reference compound]
7. CC[C@H]1OC(=O)[C@H](C)[C@@H](O[C@H]2C[C@@](C)(OC)[C@@H](O)[C@H](C)O2)[C@H](C)[C@@H](O[C@@H]2O[C@H](C)C[C@H](N(C)C)[C@H]2O)[C@@]2(C)C[C@@H](C)C(=O)[C@H](C)[C@H]3N(CC(=O)CC=CCO2)C(=O)O[C@]13C
8. CC[C@H]1OC(=O)[C@H](C)[C@@H](O[C@H]2C[C@@](C)(OC)[C@@H](OC(C)=O)[C@H](C)O2)[C@H](C)[C@@H](O[C@@H]2O[C@H](C)C[C@H](N(C)C)[C@H]2O)[C@@]2(C)C[C@@H](C)C(=O)[C@H](C)[C@H]3N(CCNCc4cccc(c4)C=CCO2)C(=O)O[C@]13C

1. 0.39
2. 0.1
3. 0.1
4. 0.05
5. 0.2
6. 0.05
7. 0.2
8. 0.78

Give one value of MIC per listed molecule.
1. CC[C@H]1OC(=O)[C@H](C)[C@@H](O[C@H]2C[C@@](C)(OC)[C@@H](O)[C@H](C)O2)[C@H](C)[C@@H](O[C@@H]2O[C@H](C)C[C@H](N(C)C)[C@H]2O)[C@@]2(C)C[C@@H](C)C(=O)[C@H](C)[C@H]3N(CCNC(=O)Cc4ccccc4C=CCO2)C(=O)O[C@]13C
2. CC[C@H]1OC(=O)[C@H](C)[C@@H](O[C@H]2C[C@@](C)(OC)[C@@H](O)[C@H](C)O2)[C@H](C)[C@@H](O[C@@H]2O[C@H](C)C[C@H](N(C)C)[C@H]2O)[C@@]2(C)C[C@@H](C)C(=O)[C@H](C)[C@H]3N(CCC=CCO2)C(=O)O[C@]13C
3. CC[C@H]1OC(=O)[C@H](C)[C@@H](O[C@H]2C[C@@](C)(OC)[C@@H](O)[C@H](C)O2)[C@H](C)[C@@H](O[C@@H]2O[C@H](C)C[C@H](N(C)C)[C@H]2O)[C@@]2(C)C[C@@H](C)C(=O)[C@H](C)[C@H]3N(CC=CCO2)C(=O)O[C@]13C
4. CC[C@H]1OC(=O)[C@H](C)[C@@H](O[C@H]2C[C@@](C)(OC)[C@@H](O)[C@H](C)O2)[C@H](C)[C@@H](O[C@@H]2O[C@H](C)C[C@H](N(C)C)[C@H]2O)[C@@]2(C)C[C@@H](C)C(=O)[C@H](C)[C@H]3N(CC(O)CCCCO2)C(=O)O[C@]13C (stereo partly shown)
5. CC[C@H]1OC(=O)[C@H](C)C(=O)[C@H](C)[C@@H](O[C@@H]2O[C@H](C)C[C@H](N(C)C)[C@H]2O)[C@@]2(C)C[C@@H](C)C(=O)[C@H](C)[C@H]3N(CCC=CCO2)C(=O)O[C@]13C

0.2
0.02
0.05
0.1
0.2
